experiment: NCI Yeast Anticancer Drug Screen. Data for the rad50 strain (AID 155);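 also: 0% = growth of vehicle-only cultures of the same strain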; details: S. cerevisiae rad50 strain growth inhibition; at 50.0 µM (retest, dose inferred, filed as 5.0)
About 79,000 compounds went through this panel and 15% of them were active in at least one assay; those are over-represented in the sample as a whole. Calls of active or inactive are those of the source. Rule as the data show it: active = growth inhibition above about 70%; inactive = the rest.
In this exercise, the only acceptable responses are active, inactive

Reference set (5 entries):
1) O=C(N/C(=C\c1ccc([N+](=O)[O-])cc1)c1nc2ccccc2s1)c1ccccc1
active
2) CN(C)CCCc1ccc2oc3ccccc3c2c1
inactive
3) C=C1CC(O)C2C(C[Se]c3ccccc3)C(=O)O[C@@H]2C2C(=C)[C@@H](O)CC12 (stereo not given in full)
inactive
4) CCOC(=O)C(Cl)C(Cl)C(=O)OCC (stereo not given)
active
5) O=[N+]([O-])c1ccc(Sc2ccsc2)c([N+](=O)[O-])c1
active

Q. Identify the outcome logged in this assay for the compound shown: Clc1cc2ccccc2c2ccccc12
A. inactive

Q. Identify the outcome logged in this assay for the compound shown: CCOC(=O)C(=Cc1cccnc1C)C(=O)OCC
A. inactive

Q. Identify the outcome logged in this assay for the compound shown: CC(/C=N/NS(=O)(=O)c1ccc(C)cc1)=C(c1ccccc1)c1ccccc1
A. active

Q. Identify the outcome logged in this assay for the compound shown: COc1ccccc1/C=N/Nc1nnc(N/N=C/c2ccccc2OC)c2ccccc12
A. inactive

Q. Identify the outcome logged in this assay for the compound shown: O=C1c2ccccc2C(=O)c2sc(Nc3ccccc3C(F)(F)F)nc21
A. active

Q. Identify the outcome logged in this assay for the compound shown: CCOC(=O)CC(O)(CCc1ccccc1)c1ccccc1 (stereo not given)
A. inactive

Q. Identify the outcome logged in this assay for the compound shown: C[n+]1c(-c2ccc(/C=N\Nc3nnc(S)n3/N=C/c3ccc(-c4cn5ccccc5[n+]4C)cc3)cc2)cn2ccccc21
A. active

Q. Identify the outcome logged in this assay for the compound shown: Cc1cccc(-c2csc(N)n2)c1
A. active

Q. Identify the outcome logged in this assay for the compound shown: Clc1sc2ccccc2c1Cl
A. inactive

Q. Identify the outcome logged in this assay for the compound shown: O=C(Cc1csc2[n+]1C(=O)/C(=C/c1cccc([N+](=O)[O-])c1)S2)Nc1ccccc1
A. inactive

Q. Identify the outcome logged in this assay for the compound shown: NNC(=O)N/N=C(/CC1(O)C(=O)Nc2ccc(Br)cc21)c1ccccc1 (stereo not given)
A. active

Q. Identify the outcome logged in this assay for the compound shown: C=CNC(=O)Oc1ccccc1
A. inactive

Q. Identify the outcome logged in this assay for the compound shown: CC1(C)N=C(N)N=C(N)N1c1cccc(OCc2cccc(N)c2)c1
A. inactive

Q. Identify the outcome logged in this assay for the compound shown: Cc1[nH]c2ccccc2c1C1=CC2(C)Nc3ccccc3C2C(C)(C)C1 (stereo not given)
A. inactive

Q. Identify the outcome logged in this assay for the compound shown: CCOC(=O)c1ccc(O)c(C=O)c1
A. active

Q. Identify the outcome logged in this assay for the compound shown: N/C(=N\N=C/c1ccc(O)c(O)c1O)NO
A. inactive

Q. Identify the outcome logged in this assay for the compound shown: CC1COC(c2cn[nH]c2C(N)=O)C1O (stereo not given)
A. inactive

Q. Identify the outcome logged in this assay for the compound shown: C(=C\c1cccc2ccccc12)/c1ccncc1
A. active

Q. Identify the outcome logged in this assay for the compound shown: CC(C)N(C(=O)CC1(O)CCCCC1)C(C)C
A. inactive

* * *

Assay: NCI Yeast Anticancer Drug Screen. Data for the bub3 strain (AID 167)
Details: S. cerevisiae bub3 mutant strain, at 50.0 µM (retest, dose inferred, filed as 5.0)
Procedure: Growth inhibition of yeast strains with defined genetic alterations is measured as a screen for potential anti-cancer activity. Selected strains with alterations in DNA damage repair or cell cycle control were exposed to compounds and growth inhibition was measured relative to vehicle treated controls. The strain used in this assay is bub3
This is part of a sample that, as a whole, favours compounds with a hit. Of some 79,000 tested, about 15% had one in any assay. The source made the active and inactive calls. Rule as the data show it: active = growth inhibition above about 70%; inactive = the rest.
In this exercise, the only acceptable responses are true = active, false = inactive

1) O=S(=O)(Nc1ccccc1)c1ccccc1C(O)(c1ccccc1)c1ccccc1
true
2) CCc1ccc(C(=O)O)c2ccccc12
false
3) CC1C(c2ccc(Cl)cc2)c2cc3c(cc2OC1N1CCOCC1)OCO3 (stereo not given)
false
4) CC(=O)O[C@@H]1CO[C@H]2O[C@H]3[C@@H](C(C=O)=C[C@H](O)[C@@H]4C5=C(C(C)C)CC[C@]5(C)CC[C@@]34C)[C@@]2(O)C1=O
true

Q. Identify the outcome logged in this assay for the molecule shown: COC(=O)Nc1nc2ccc(C(C)(O)c3cccs3)cc2[nH]1 (stereo not given)
A. true

* * *

Entries and their growth inhibition
assay: NCI Yeast Anticancer Drug Screen. Data for the mec2-1 strain (AID 157); settings: S. cerevisiae mec2-1 strain, at 5.0 µM (retest, dose inferred, filed as 0.5), active compounds read high
About 79,000 compounds went through this panel and 15% of them were active in at least one assay; those are over-represented in the sample as a whole.
Give the value, in units of %, as a plain number.

Consider the following illustrative entries.
1. CC(C)=CC(=O)OC(CCCc1ccccc1)c1ccc2c(c1)OCO2 (stereo unspecified)
7
2. Fc1ccc(CSC(=S)Nc2cccc(C(F)(F)F)c2)cc1
9
3. Cc1cc(O)n(Cc2ccccc2)c(=O)c1
-51
4. O=[N+]([O-])C(=C(Nc1ccccc1)Nc1ccccc1)C(Cl)=C(Cl)Cl
98
5. CCN(CC)C(=O)CCCC1CCCCC1
-3

Q. Give growth inhibition for O=C1c2ccc(S(=O)(=O)O)cc2C(=O)c2ccc(S(=O)(=O)O)cc21
A. -1

Q. Give growth inhibition for Oc1cc(Cc2ccccc2)c(Cc2ccccc2)cc1O
A. -26

Q. Give growth inhibition for CC(C)Cn1cnc2c(SCc3cccc(F)c3)nc(N)nc21
A. -1

Q. Give growth inhibition for O=C(O)CCC(=O)NCCNC(=O)CC(=O)O
A. -52

Q. Give growth inhibition for CCCNC(=O)N(CC(C)(C)C)S(=O)(=O)c1ccc(Cl)cc1
A. -2

Q. Give growth inhibition for CC(C)(C)c1cc(C(O)(C(F)(F)F)C(F)(F)F)c(Cl)c(C(O)(C(F)(F)F)C(F)(F)F)c1
A. 13

* * *

assay: NCI Yeast Anticancer Drug Screen. Data for the sgs1 mgt1 strain (AID 161);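 also: 0% = growth of cultures given vehicle only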; conditions: S. cerevisiae sgs1 mgt1 strain, at 5.0 µM (retest, dose inferred, filed as 0.5)
The panel holds about 79,000 compounds, 15% with a hit somewhere; the sample as a whole holds those more often. Active and inactive are the calls of the source. Cut-off read from the data, not from the text of the source: active = growth inhibition above about 70%; inactive = the rest.
In this exercise, the only acceptable responses are Yes for active, No for inactive

1. O=C1c2ccccc2-c2nnc3c(c21)Cc1ccccc1C3
No
2. O=C(O)C(c1ccccc1)c1ccc(-c2ccccc2)cc1 (stereo not given)
No
3. Cc1ccc(S(=O)(=O)OC2COC3C(OS(=O)(=O)c4ccc(C)cc4)COC23)cc1 (stereo not given)
No
4. CC(O)c1cc(-c2ccc(Cl)cc2)nc2ccccc12 (stereo not given)
No
5. Oc1c(Cl)cc(C(c2cc(Cl)c(O)c(Cl)c2)C(c2cc(Cl)c(O)c(Cl)c2)c2cc(Cl)c(O)c(Cl)c2)cc1Cl
Yes
6. CCCCCCOC(=O)Nc1ccc(S(=O)(=O)N2CCCCC2)cc1
No
7. CN(C)c1ccc(/C=N/N=C(/C#N)[S][Sn]([S]/C(C#N)=N/N=C/c2ccc(N(C)C)cc2)([c]2ccccc2)[c]2ccccc2)cc1
No
8. CC(C)(C)OC(=O)C(N(Cc1ccccc1)Cc1ccccc1)N(Cc1ccccc1)Cc1ccccc1
No

Q. Identify the outcome logged in this assay for the compound shown: CN(C)CCC1(C2=CCCC2)CC/C(=C\c2ccc(Cl)cc2)C1=O (stereo not given)
A. No

Q. Identify the outcome logged in this assay for the compound shown: CC(C)Cc1cc2c(cc1O)CCC1C2CC[C@@]2(C)C1CC[C@@H]2O (stereo not given in full)
A. No

* * *

Entries and their growth inhibition
assay: NCI Yeast Anticancer Drug Screen. Data for the mlh1 rad18 strain (AID 175); conditions: S. cerevisiae mlh1 rad18 strain growth inhibition; at 5.0 µM (retest, dose inferred, filed as 0.5); active compounds read high
This is part of a sample that, as a whole, favours compounds with a hit. Of some 79,000 tested, about 15% had one in any assay.
Give the value, in units of %, as a plain number.

1. CCC(CC)C1(C(=O)OCCN(CC)CC)CCCCC1
4
2. CC(C)c1ccc(CN(CCO)Cc2ccc(C(C)C)cc2)cc1
8
3. c1ccc(SSc2ccccn2)nc1
62
4. O=C(NCCCNCCCCNCCCNC(=O)c1cc(-c2ccccc2)nc2ccccc12)c1cc(-c2ccccc2)nc2ccccc12
46
5. Cc1cc([N+](=O)[O-])cc(C)[n+]1[O-]
20
6. COP(=O)(OC)OCC1OC(n2cnc3c(N)ncnc32)C(O)C1O (configuration not stated)
-3
7. COC(=O)N(C[C@@H]1C=CCCC1)c1ccccc1I
41
8. O=C(CCN1CCOCC1)c1ccc(Oc2ccc(F)cc2)cc1
74

Q. Give growth inhibition for O=c1c2[nH]c3cccc(Cl)c3c2cnn1-c1ccc(F)cc1
A. -2

Q. Give growth inhibition for COc1cccc2c1C(=O)c1c(O)c3c(c(O)c1C2=O)C[C@@](O)(/C(C)=N\NC(N)=O)C[C@@H]3OC1CC(N)C(O)C(C)O1 (some centres not stated)
A. 8

Q. Give growth inhibition for CC(=O)/C(=C\c1cccc(Cl)c1)C(=O)CCN(C)C
A. 23

Q. Give growth inhibition for Nc1ccc(C(=O)Oc2cccccc2=O)cc1
A. 4

// data source = PubChem BioAssay (NCI)
